composite z-score for assorted compounds
# Target: Neurogenic locus notch homolog protein 2 (Homo sapiens) (UniProt Q04721)
# Sequence (Q04721 whole entry, looked up): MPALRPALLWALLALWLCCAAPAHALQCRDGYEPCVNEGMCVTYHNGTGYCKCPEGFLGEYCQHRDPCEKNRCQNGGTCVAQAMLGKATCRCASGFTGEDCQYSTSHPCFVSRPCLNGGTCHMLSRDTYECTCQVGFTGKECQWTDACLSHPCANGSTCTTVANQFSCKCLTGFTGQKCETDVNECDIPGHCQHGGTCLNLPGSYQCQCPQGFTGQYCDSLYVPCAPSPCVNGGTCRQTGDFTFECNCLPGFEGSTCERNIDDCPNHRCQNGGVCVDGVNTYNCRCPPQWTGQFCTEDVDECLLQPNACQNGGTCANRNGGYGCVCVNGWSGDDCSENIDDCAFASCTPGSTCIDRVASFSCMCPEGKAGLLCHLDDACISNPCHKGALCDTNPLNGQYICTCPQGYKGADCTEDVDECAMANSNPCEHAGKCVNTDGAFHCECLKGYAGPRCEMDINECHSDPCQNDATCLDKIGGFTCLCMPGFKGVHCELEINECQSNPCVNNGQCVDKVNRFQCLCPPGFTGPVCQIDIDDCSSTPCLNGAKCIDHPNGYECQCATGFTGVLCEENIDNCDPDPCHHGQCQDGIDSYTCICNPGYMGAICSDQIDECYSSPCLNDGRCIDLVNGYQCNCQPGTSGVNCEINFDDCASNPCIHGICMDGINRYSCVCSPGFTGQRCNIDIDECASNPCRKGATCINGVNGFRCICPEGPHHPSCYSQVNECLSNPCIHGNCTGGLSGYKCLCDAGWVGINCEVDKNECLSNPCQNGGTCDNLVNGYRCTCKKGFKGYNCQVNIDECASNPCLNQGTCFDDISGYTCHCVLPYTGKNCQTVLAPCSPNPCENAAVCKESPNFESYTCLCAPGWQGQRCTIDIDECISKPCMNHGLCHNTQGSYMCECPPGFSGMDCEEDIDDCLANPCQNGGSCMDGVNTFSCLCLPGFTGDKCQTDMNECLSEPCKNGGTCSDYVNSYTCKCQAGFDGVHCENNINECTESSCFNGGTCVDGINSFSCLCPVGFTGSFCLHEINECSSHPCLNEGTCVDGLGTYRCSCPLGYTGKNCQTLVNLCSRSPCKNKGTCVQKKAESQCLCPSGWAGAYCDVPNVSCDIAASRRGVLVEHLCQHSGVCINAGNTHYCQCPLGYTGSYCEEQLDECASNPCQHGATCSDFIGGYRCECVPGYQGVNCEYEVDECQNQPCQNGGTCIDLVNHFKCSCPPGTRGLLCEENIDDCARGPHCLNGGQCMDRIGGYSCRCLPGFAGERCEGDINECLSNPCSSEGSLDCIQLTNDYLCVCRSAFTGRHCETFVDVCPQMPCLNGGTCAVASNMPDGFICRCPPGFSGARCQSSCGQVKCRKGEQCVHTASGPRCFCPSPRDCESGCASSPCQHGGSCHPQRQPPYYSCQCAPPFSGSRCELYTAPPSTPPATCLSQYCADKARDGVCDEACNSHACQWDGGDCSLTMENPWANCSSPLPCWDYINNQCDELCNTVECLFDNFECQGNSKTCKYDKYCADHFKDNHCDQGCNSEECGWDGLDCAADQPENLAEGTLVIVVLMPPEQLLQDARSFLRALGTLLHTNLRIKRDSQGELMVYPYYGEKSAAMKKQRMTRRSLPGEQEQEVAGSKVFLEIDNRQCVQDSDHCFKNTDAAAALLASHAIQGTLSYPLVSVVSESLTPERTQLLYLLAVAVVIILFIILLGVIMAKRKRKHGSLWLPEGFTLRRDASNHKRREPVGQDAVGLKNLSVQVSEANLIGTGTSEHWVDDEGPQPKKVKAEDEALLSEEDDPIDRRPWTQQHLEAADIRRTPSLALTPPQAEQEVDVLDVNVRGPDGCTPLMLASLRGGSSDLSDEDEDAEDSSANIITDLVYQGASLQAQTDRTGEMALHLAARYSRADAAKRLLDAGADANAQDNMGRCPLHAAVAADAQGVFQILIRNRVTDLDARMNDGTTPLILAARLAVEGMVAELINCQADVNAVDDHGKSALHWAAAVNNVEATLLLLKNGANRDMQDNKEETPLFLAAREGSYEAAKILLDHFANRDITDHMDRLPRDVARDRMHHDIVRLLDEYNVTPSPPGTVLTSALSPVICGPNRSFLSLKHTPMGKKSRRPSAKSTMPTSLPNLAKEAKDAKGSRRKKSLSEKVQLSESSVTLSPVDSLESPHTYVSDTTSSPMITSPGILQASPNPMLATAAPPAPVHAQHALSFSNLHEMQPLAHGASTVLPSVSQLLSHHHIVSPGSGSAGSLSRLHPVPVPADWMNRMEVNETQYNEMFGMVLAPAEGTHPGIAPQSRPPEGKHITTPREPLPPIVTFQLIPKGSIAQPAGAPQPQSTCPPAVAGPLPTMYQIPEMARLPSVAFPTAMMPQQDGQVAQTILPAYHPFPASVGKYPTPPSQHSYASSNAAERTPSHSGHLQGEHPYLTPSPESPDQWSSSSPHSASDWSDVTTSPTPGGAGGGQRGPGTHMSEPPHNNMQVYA
# Method Notes: Notch2 binders on small-molecule microarrays, primary screen, biochemical, small-molecule microarray, 635 nm fluorescence, stem cell growth factors (AID 1073)
# Measurement Conditions: Notch2 binding, higher = more signal

- Compound: "CC(C)N1C(=O)[C@@]2(Cc3ccccc31)c1ccccc1C(=O)N(Cc1ccccc1)[C@H]2c1ccc(CO)cc1"
  composite z-score: -0.291
- Compound: "COCCCNC(=O)[C@]1(Cc2ccccc2N=[N+]=[N-])N=C(c2ccc(OCCCO)cc2)O[C@@H]1c1ccccc1"
  composite z-score: 1.4
- Compound: "COC(=O)C(CC#Cc1ccc2c(c1)[C@]1(C(=O)N2)[C@H](C(=O)N2CCN(c3ncccn3)CC2)[C@H]2C(=O)O[C@H](c3ccccc3)[C@H](c3ccccc3)N2[C@@H]1c1ccc(O)cc1)C(=O)OC"
  composite z-score: 1.53
- Compound: "COCCCNC(=O)[C@@]1(CCC(=O)OC(C)(C)C)N=C(c2ccc(OCCCO)cc2)O[C@H]1c1ccccc1"
  composite z-score: 1.23
- Compound: "COc1cc(Cc2cc3c(c(-c4ccccc4)n2)[Si](C(C)C)(C(C)C)OC3)cc(OC)c1OC"
  composite z-score: -0.374
- Compound: "O=C1C2C=CC(C(O)C(c3ccccc3)c3ccccc3)N(Nc3ccccc3F)C2C(=O)N1c1ccccc1 (centres undefined)"
  composite z-score: 1.63
- Compound: "CC(C)C[C@H]1NC(=O)CNC(=O)[C@@]23C(=O)N[C@@H](Cc4ccccc4)C2[C@H](C)[C@@]2(C)O[C@H]2C3/C=C/C/C=C\\CNC1=O (some centres undefined)"
  composite z-score: -0.222
- Compound: "COC(=O)[C@@]1(Cc2ccc(F)cc2)[C@H]2c3cc(C(=O)N4CCCC4)n(CCc4c[nH]c5cc(F)ccc45)c3C[C@H]2CN1C(=O)c1ccccc1"
  composite z-score: 1.68
- Compound: "Cc1cccc([C@H]2C[C@H]3C(Br)=C[C@@]2(CO)C(=O)[C@]32CO2)c1"
  composite z-score: -0.368
- Compound: "Cc1ccc(S[C@]2(C(=O)NCCN3CCOCC3)CC(=O)N(C(C)C)[C@@H]2c2ccc(CO)cc2I)cc1"
  composite z-score: -0.521
- Compound: "CC[C@H]1C2=C3C(CC[C@H]4C(OCc5ccc(F)cc5C(F)(F)F)OC[C@](C)([C@@H]34)N(C(=O)OC(C)(C)C)C2)C(COC(C)=O)C1COC(C)=O (some centres undefined)"
  composite z-score: 1.54
- Compound: "C=C(CCCC)/C(=C/C[C@@H](OC(C)=O)c1ccc(OCCO)cc1)c1cc(C(=O)OC)ccc1OC"
  composite z-score: -0.332
- Compound: "C=CCNC(=O)[C@H]1[C@@H]2C(=O)O[C@@H](c3ccccc3)[C@@H](c3ccccc3)N2[C@@H](c2ccc(O)cc2)[C@]12C(=O)N(C(=O)OCCOC)c1ccc(C#Cc3ccc(OC)cc3)cc12"
  composite z-score: 0.759
- Compound: "CCOC(=O)C[C@H]1[C@H](OC(=O)c2ccccc2-c2ccccc2)[C@@H](NC(=O)CC(C)C)c2cc(OCCCO)ccc2N1C(=O)c1ccccc1"
  composite z-score: 0.527

###

# Method Notes: S. cerevisiae RM11-1a growth modifiers, primary screen, strain RM11-1a, OD600, basal, 24 h (AID 1177);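 further: cultures grown under basal conditions with no added stressor; test concentration not given here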
# Measurement Conditions: OD600, 24 h, higher = more signal, called active from +8 up or from −8 down

- Compound: "CC(C)c1ccc(NN2C(C(O)c3ccccc3)C=CC3C(=O)N(c4ccccc4)C(=O)C32)cc1 (stereo not given)"
  z-score: 1.58
- Compound: "[N-]=[N+]=Nc1ccccc1C[C@@]1(C(=O)NCc2ccccc2)N=C(c2ccc(OCCCO)cc2)O[C@@H]1c1ccccc1"
  z-score: 1.17
- Compound: "C=CC[C@]1(C(=O)NCC(O)CO)N=C(c2ccc(OCCCO)cc2)O[C@H]1c1ccccc1CN=[N+]=[N-] (stereo not given in full)"
  z-score: 0.244
- Compound: "CC(C)N1C(=O)[C@@]2(Cc3ccccc31)c1ccccc1C(=O)N(Cc1ccccc1)[C@H]2c1ccc(CO)cc1"
  z-score: 1.69
- Compound: "CCCC=C(CCC)[C@@H](NC(=O)c1ccc(C(=O)OC)cc1)c1ccc(C(=O)OC)cc1"
  z-score: 1.55
- Compound: "C=CCNC(=O)[C@H]1[C@@H]2C(=O)O[C@@H](c3ccccc3)[C@@H](c3ccccc3)N2[C@@H](c2ccc(OCCO)cc2)[C@]12C(=O)N(C(=O)OCCOC)c1ccc(C#CCNC(N)=O)cc12"
  z-score: 3.01
- Compound: "C=C(C(=O)CC[C@@H](OC(=O)c1cccnc1)c1cccc(OCCO)c1)C(C)C"
  z-score: -1.3
- Compound: "[N-]=[N+]=NCc1ccccc1[C@H]1OC(c2ccc(OCCCO)cc2)=N[C@@]1(CCS(=O)(=O)c1ccccc1)C(=O)NCCN1CCOCC1"
  z-score: -0.199
- Compound: "COc1ccc(CCNC(=O)[C@@H]2c3ccccc3C(=O)N(C(C)C)[C@H]2c2ccc(CO)cc2)cc1"
  z-score: 0.326
- Compound: "COc1ccc(-c2cc3c(c(CCc4ccccc4)n2)[Si](C(C)C)(C(C)C)O[C@H]3c2ccccc2)cn1"
  z-score: 0.868
- Compound: "COc1ccc([Si](C)(C)[C@H]2[C@H](CC(=O)N(CCO)Cc3ccccc3)O[C@@]3(C(=O)N(Cc4ccc(N5C(=O)c6cccc7cccc5c67)cc4)c4ccccc43)[C@@H]2C)cc1"
  z-score: 2.45
- Compound: "Cc1ccc(S(=O)(=O)N2[C@@H](c3ccccc3)C(C(=O)O)=CC[C@H]2c2ccc(F)cc2)cc1"
  z-score: -0.069
- Compound: "CCOC(=O)C[C@H]1[C@H](OC(=O)c2cc3ccccc3oc2=O)[C@@H](NC(=O)c2ccc(-c3ccccc3)cc2)c2cc(OCCCO)ccc2N1C(=O)Cc1ccc(OC)cc1"
  z-score: -0.0775
- Compound: "Cc1ccc(S[C@]2(C(=O)NC(C)C)CC(=O)N(Cc3ccccc3)[C@@H]2c2ccc(CO)cc2I)cc1"
  z-score: -0.101
- Compound: "[N-]=[N+]=NCc1ccccc1[C@H]1OC(c2ccc(OCCCO)cc2)=N[C@@]1(CCS(=O)(=O)c1ccccc1)C(=O)O"
  z-score: -0.81

###

# Method Notes: CREB reporter modulators without forskolin, primary screen, cell-based, PC12, CRE-LacZ reporter, unstimulated (AID 1145)
# Measurement Conditions: no forskolin, luminescence, 4.5 h, higher = more signal, called active from +8 up or from −8 down

- Compound: "O=C1O[C@H](c2ccccc2)[C@H](c2ccccc2)N2[C@H]1[C@@H](C(=O)Nc1nc3ccccc3s1)[C@]1(C(=O)Nc3ccccc31)[C@H]2c1ccccc1OCCO"
  z-score: 0.272
- Compound: "C=C[C@@H](CO)NS(=O)(=O)c1ccc(Br)cc1"
  z-score: 1.54
- Compound: "COC(=O)[C@@]1(Cc2ccccc2)[C@H]2c3cc(C(=O)N(C)C)n(CCF)c3C[C@H]2CN1C(=O)c1ccccc1"
  z-score: 0.387
- Compound: "COc1cc2c(cc1O)C(C)N(Cc1sc3ccccc3c1Cl)CC2 (stereo not given)"
  z-score: -0.258
- Compound: "CCCCC(=C=CC[C@H](O)c1cccc(OCCO)c1)C[C@H](O)c1cc(Cl)cc(Cl)c1O"
  z-score: 1.66
- Compound: "COCCOC(=O)N1C(=O)[C@@]2(c3cc(C#CCNC(N)=O)ccc31)[C@H](C(=O)N1CCN(c3ncccn3)CC1)[C@H]1C(=O)O[C@H](c3ccccc3)[C@H](c3ccccc3)N1[C@@H]2c1ccc(O)cc1"
  z-score: 0.484
- Compound: "COc1ccc(-c2cc3c(c(CCc4ccccc4)n2)[Si](C(C)C)(C(C)C)O[C@H]3c2ccccc2)cn1"
  z-score: 4.67
- Compound: "C=C(COC)/C(=C/C[C@@H](OC(C)=O)c1cccc(OCCO)c1)c1cnc2ccccc2c1"
  z-score: 2.53
- Compound: "COc1ccc([Si](C)(C)[C@H]2[C@H](CCO)O[C@@]3(C(=O)N(Cc4ccccc4)c4ccc(NC(=O)[C@H](C)O)cc43)[C@@H]2C)cc1"
  z-score: 20.8
- Compound: "O=C1N(Cc2ccccc2)c2ccccc2C[C@@]12N=C(c1ccc(OCCCO)cc1)O[C@H]2c1ccccc1"
  z-score: 1.87
- Compound: "CC1CC/C=C\\[C@H]2OC34C=CCN(CCN5CCOCC5)C(=O)[C@H]3N(C(CO)C(C)C)C(=O)[C@@H]4C2C(=O)O1 (stereo not given in full)"
  z-score: -0.0778
- Compound: "CN(C)CCCCNC(=O)[C@H]1C[C@H]2C(=O)N[C@@H](CCCCN(C)C)C(=O)N2[C@H]1c1ccc(O)cc1"
  z-score: -1.61
- Compound: "Cc1ccc(S[C@]2(C(=O)NCCN3CCOCC3)CC(=O)N(C(C)C)[C@@H]2c2ccc(CO)cc2I)cc1"
  z-score: -0.116
- Compound: "CC(C)C[C@@H]1NC(=O)[C@H]2C[C@@H](C(=O)O)[C@@H](c3cccc(OCCO)c3)N2C1=O"
  z-score: 0.561
- Compound: "COC(=O)[C@@]1(Cc2ccc(F)cc2)[C@H]2c3cc(C(=O)N4CCCC4)n(Cc4ccc(C(F)(F)F)nc4)c3C[C@H]2CN1C(=O)c1ccccc1"
  z-score: 0.197
